- Target entity: T1, human TMEM106B (human, UniProt Q9NUM4 2-274)
- T1 construct: Full-length, on transiently transfected HEK293 cells, or natively expressed on HeLa, U251 and A549 cells; also called huTMEM106B; huTMEM
- Measurement description: FACS HEK+huTMEM, 0.1 ug/ml;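 further: flow cytometry binding of purified mouse IgG antibodies to HEK293 cells transiently expressing TMEM106B, read as median fluorescence intensity with propidium iodide positive dead cells gated out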
Each record gets a class by MFI: lower bin: < 2000; middle bin: ≥ 2000 and < 30000; upper bin: ≥ 30000

# Binder, Class assignment
measured = [
    ("anti-TMEM106B antibody TM-25 (antibody, V domains shown) VH: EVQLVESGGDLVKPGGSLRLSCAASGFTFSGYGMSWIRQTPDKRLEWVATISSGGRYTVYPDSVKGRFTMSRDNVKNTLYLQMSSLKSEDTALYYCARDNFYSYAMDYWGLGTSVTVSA VL: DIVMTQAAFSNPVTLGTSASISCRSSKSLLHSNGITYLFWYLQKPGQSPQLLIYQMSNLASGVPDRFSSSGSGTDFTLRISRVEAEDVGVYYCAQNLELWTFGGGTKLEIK", "upper bin"),
    ("anti-TMEM106B antibody TM-3 (antibody, V domains shown) VH: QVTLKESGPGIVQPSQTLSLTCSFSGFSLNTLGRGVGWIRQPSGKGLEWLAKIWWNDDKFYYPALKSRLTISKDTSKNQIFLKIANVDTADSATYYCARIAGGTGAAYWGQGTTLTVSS VL: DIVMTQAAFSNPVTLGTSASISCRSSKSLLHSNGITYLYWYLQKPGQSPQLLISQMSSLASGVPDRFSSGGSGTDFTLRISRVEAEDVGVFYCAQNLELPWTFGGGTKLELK", "upper bin"),
    ("anti-TMEM106B antibody TM-17 (antibody, V domains shown) VH: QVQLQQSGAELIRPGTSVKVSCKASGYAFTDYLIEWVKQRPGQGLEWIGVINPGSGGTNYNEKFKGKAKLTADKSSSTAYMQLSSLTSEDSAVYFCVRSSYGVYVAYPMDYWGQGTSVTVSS VL: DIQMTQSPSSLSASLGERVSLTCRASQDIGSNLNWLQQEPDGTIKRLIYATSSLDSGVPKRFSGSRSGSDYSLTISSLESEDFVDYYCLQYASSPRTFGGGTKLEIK", "lower bin"),
    ("anti-TMEM106B antibody TM-45 (antibody, V domains shown) VH: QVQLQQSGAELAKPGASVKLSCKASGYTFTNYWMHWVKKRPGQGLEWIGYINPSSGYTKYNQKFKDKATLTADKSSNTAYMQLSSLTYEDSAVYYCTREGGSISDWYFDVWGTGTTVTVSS VL: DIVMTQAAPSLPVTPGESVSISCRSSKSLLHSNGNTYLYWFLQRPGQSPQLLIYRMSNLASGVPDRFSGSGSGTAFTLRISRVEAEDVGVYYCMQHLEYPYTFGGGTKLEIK", "middle bin"),
    ("anti-TMEM106B antibody TM-14 (antibody, V domains shown, mouse IgG from hybridoma) VH: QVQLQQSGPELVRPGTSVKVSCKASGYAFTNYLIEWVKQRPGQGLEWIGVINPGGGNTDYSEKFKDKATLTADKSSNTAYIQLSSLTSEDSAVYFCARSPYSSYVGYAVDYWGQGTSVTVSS VL: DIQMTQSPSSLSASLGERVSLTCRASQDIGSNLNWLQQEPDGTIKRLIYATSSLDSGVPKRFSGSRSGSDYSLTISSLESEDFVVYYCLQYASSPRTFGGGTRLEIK", "lower bin"),
    ("anti-TMEM106B antibody TM-31 (antibody, V domains shown, mouse IgG from hybridoma) VH: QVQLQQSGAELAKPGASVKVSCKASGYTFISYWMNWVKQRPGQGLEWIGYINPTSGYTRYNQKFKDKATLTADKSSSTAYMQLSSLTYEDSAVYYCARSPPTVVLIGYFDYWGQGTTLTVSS VL: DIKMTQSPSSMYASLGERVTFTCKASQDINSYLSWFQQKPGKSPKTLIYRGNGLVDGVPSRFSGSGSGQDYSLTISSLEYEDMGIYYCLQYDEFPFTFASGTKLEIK", "lower bin"),
]

Dear colleague, I would appreciate it if you could identify the bin for anti-TMEM106B antibody TM-48 (antibody, V domains shown) VH: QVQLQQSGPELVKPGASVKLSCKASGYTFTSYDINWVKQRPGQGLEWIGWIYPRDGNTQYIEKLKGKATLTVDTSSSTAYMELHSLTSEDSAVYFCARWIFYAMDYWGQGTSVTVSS VL: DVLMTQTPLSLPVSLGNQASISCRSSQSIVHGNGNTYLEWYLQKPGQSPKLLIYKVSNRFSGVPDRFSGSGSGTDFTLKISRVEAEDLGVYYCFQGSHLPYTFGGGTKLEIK and reply at your convenience.
middle bin

Dear colleague, I would appreciate it if you could identify the bin for anti-TMEM106B antibody TM-18 (antibody, V domains shown) VH: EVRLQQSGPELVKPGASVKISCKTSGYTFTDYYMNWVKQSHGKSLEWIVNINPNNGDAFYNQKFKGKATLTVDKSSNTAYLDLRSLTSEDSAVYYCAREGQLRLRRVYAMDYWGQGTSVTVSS VL: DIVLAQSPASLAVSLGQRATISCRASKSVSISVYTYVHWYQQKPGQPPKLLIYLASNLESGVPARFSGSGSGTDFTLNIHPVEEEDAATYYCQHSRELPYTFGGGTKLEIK and reply at your convenience.
middle bin

Dear colleague, I would appreciate it if you could identify the bin for anti-TMEM106B antibody TM-50 (antibody, V domains shown, mouse IgG from hybridoma) VH: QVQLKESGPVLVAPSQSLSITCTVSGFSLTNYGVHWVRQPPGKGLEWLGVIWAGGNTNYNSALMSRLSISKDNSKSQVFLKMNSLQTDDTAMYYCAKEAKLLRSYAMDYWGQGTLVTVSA VL: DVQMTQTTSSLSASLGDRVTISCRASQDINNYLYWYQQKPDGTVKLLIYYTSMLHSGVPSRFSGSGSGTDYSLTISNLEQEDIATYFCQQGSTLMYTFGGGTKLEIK and reply at your convenience.
lower bin

Dear colleague, I would appreciate it if you could identify the bin for anti-TMEM106B antibody TM-9 (antibody, V domains shown) VH: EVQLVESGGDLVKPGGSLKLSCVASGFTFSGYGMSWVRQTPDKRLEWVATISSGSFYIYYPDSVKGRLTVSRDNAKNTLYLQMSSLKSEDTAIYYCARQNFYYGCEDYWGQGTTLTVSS VL: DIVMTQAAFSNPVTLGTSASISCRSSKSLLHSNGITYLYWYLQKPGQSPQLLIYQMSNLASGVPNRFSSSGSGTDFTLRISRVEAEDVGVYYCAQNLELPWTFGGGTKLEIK and reply at your convenience.
middle bin

Values compiled from patent US20230303681A1.
